Cited source: patent US20110306636A1

# Target under test: S1P1 (Homo sapiens)
# Sequence (P21453 whole entry, species assumed): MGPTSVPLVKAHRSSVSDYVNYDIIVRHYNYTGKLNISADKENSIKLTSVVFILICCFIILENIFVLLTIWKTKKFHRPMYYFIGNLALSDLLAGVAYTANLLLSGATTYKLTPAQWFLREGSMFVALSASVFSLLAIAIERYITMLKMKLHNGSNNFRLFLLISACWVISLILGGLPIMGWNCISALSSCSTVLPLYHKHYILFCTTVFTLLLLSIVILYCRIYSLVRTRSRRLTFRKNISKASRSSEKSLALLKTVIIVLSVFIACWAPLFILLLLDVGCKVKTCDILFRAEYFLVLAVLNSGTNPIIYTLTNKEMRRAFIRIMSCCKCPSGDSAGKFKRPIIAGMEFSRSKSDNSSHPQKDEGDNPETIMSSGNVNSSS
# Method notes: Receptor binding assay, [33P]sphingosine 1-phosphate competition, S1P1
# Test context: 96 well-plate; read-out: S1P1 binding IC50 (M) (96 well-plate)
Where a name gives a salt, the structure may show the parent alone.
Measure: IC50 (M)
Numbers only, in M.

[Q] // lookup IC50 for `COCc1cc(-c2nc(-c3ccc(O)nc3)no2)ccc1-c1ccccc1C`
[A] 4.76e-08

[Q] Which IC50 reading was recorded for the compound COCc1cc(-c2nc(-c3cnc(N)c(C)c3)no2)ccc1-c1ccccc1C [Example 18, hydrochloride salt] ?
[A] 4.33e-09

Attention now shifts to the item below.
[Q] Can you look up the measured IC50 of `O=C(O)CCNc1ncc(-c2noc(-c3ccc(-c4ccccc4F)c(C(F)(F)F)c3)n2)cc1Cl` for me?
[A] 5.4e-09
